FYI, the data here is from ChEMBL document CHEMBL5390265.

molecular target: GTPase KRas (Homo sapiens, UniProt P01116); experiment: Inhibition of KRAS in human AGS cells assessed as downregulation of ERK phosphorylation incubated for 3 hrs by immunoblotting analysis; format: cell-based; details: tested as the 2H-labelled form
Sequence (P01116 whole entry, looked up): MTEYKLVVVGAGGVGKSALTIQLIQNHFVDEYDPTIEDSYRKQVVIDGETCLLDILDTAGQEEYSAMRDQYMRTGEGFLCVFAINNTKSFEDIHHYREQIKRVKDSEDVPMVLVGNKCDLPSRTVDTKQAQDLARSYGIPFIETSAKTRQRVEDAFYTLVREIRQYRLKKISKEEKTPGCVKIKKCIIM
Outcome Measure: inhibition

Compound	Obs Value
C#Cc1c(F)ccc2cc(O)cc(-c3ncc4c(NCC5(N(C)C)CCC5)nc(OCC56CCCN5CC(=C(F)F)C6)nc4c3F)c12 (centres undefined)	Dose-Dependent Effect
C#Cc1c(F)ccc2cc(O)cc(-c3ncc4c(N5C[C@H]6CC[C@@H](C5)N6)nc(OCC56CCCN5CC(=C(F)F)C6)nc4c3F)c12 (some centres undefined)	Dose-Dependent Effect
C#Cc1c(F)ccc2cc(N)cc(-c3ncc4c(N5C[C@H]6CC[C@@H](C5)N6)nc(OCC56CCCN5CC(=C(F)F)C6)nc4c3F)c12 (some centres undefined)	Dose-Dependent Effect
C#Cc1c(F)ccc2cccc(-c3ncc4c(N5C[C@H]6CC[C@@H](C5)N6)nc(OCC56CCCN5CC(=C(F)F)C6)nc4c3F)c12 (some centres undefined)	Dose-Dependent Effect

* * *

assay: Inhibition of recombinant human His6-tagged KRAS4B G12D mutant incubated for 1 hr by HTRF assay
pIC50: −log10 of the molar value.
Outcome Measure: pIC50

These recorded examples may help you get a feel for the data.
Molecule	pIC50
[2H]C([2H])(Oc1nc(NCC2(N(C)C)CCC2)c2cnc(-c3cc(O)cc4ccc(F)c(C#C)c34)c(F)c2n1)C12CCCN1CC(=C(F)F)C2 (stereo not given)	8.92
C#Cc1c(F)ccc2cc(O)cc(-c3ncc4c(N5C[C@H]6CC[C@@H](C5)N6)nc(OC[C@@]56CCCN5C[C@H](F)C6)nc4c3F)c12	8.91

(a) [2H]C([2H])(Oc1nc(N2C[C@H]3CC[C@@H](C2)N3)c2cnc(-c3cc(N)cc4ccc(F)c(C#C)c34)c(F)c2n1)C12CCCN1CC(=C(F)F)C2 (stereo not given in full)
(b) [2H]C([2H])(Oc1nc(N2C[C@H]3CC[C@@H](C2)N3)c2cnc(-c3cccc4ccc(F)c(C#C)c34)c(F)c2n1)C12CCCN1CC(=C(F)F)C2 (stereo not given in full)
(c) [2H]C([2H])(Oc1nc(N2C[C@H]3CC[C@@H](C2)N3)c2cnc(-c3cc(O)cc4ccc(F)c(C#C)c34)c(F)c2n1)C12CCCN1CC(=C(F)F)C2 (stereo not given in full)
Lookup: Sort the 3 molecules by pIC50; largest first, smallest last. Thanks in advance for listing the labels in the requested order.
Found: c, a, b
(c: 9.32, a: 8.92, b: 8.66)

* * *

tested on: A549; experiment: Antiproliferative activity against human A549 cells harboring […] assessed as inhibition of cell growth incubated for 5 days by crystal violet staining analysis; format: functional, cell-based; details: Homo sapiens, A549, 120 h
Outcome Measure: IC50 (nM)

Compound	U	Obs Value
[2H]C(Oc1nc(N2C[C@H]3CC[C@@H](C2)N3)c2cnc(-c3cc(O)cc4ccc(F)c(C#C)c34)c(F)c2n1)C12CCCN1CC(=C)C2 (stereo partly specified)	nM	731
[2H]C([2H])(Oc1nc(N2C[C@H]3CC[C@@H](C2)N3)c2cnc(-c3cc(O)cc4ccc(F)c(C#C)c34)c(F)c2n1)C12CC(=C)CN1CC(=C(F)F)C2 (stereo partly specified)	nM	960
C#Cc1c(F)ccc2cc(O)cc(-c3ncc4c(N5C[C@H]6CC[C@@H](C5)N6)nc(OCC56CCCN5CC(=C)C6)nc4c3F)c12 (stereo partly specified)	nM	2220
[2H]C([2H])(Oc1nc(N2C[C@H]3CC[C@@H](C2)N3)c2cnc(-c3cc(O)cc4ccc(F)c(C#C)c34)c(F)c2n1)C12CCCN1CC(=C)C2 (stereo partly specified)	nM	948
C#CCN(C)C(=O)OC[C@@H]1CC[C@]2(COc3nc(N4C[C@H]5CC[C@@H](C4)N5)c4cnc(-c5cc(O)cc6ccc(F)c(C#C)c56)c(F)c4n3)CCCN12	nM	1020
[2H]C([2H])(Oc1nc(N2C[C@H]3CC[C@@H](C2)N3)c2cnc(-c3cc(O)cc4ccc(F)c(C#C)c34)c(F)c2n1)C12CC(=C)CN1CC(=C)C2	nM	559
[2H]C([2H])(Oc1nc(N2C[C@H]3CC[C@@H](C2)N3)c2cnc(-c3cc(O)cc4ccc(F)c(C#C)c34)c(F)c2n1)C12CC(=C)CN1C[C@H](F)C2 (stereo partly specified)	nM	2160

(1) [2H]C([2H])(Oc1nc(N2C[C@H]3CC[C@@H](C2)N3)c2cnc(-c3cccc4ccc(F)c(C#C)c34)c(F)c2n1)C12CCCN1CC(=C(F)F)C2 (stereo partly specified)
(2) [2H]C([2H])(Oc1nc(NCC2(N(C)C)CCC2)c2cnc(-c3cc(N)cc4ccc(F)c(C#C)c34)c(F)c2n1)C12CCCN1CC(=C(F)F)C2 (stereo unspecified)
Lookup: Of 1 and 2 , whose reported IC50 is numerically smaller? Let me know the label of the one you choose.
Found: 2
(2: 700 nM, 1: 1090 nM)

* * *

test system: NCI-H1299; assay: Antiproliferative activity against human NCI-H1299 cells harboring KRAS wild type assessed as inhibition of cell growth incubated for 5 days by crystal violet staining analysis; type: functional, cell-based; conditions: NCI-H1299, 120 h
Each record here notes measured IC50.

These recorded examples may help you get a feel for the data.
Molecule	IC50
[2H]C([2H])(Oc1nc(N2CCC(N(C)C)C2)c2cnc(-c3cc(O)cc4ccc(F)c(C#C)c34)c(F)c2n1)C12CCCN1CC(=C(F)F)C2 (stereo unspecified)	> 5 µM
C#Cc1c(F)ccc2cc(O)cc(-c3ncc4c(N5C[C@H]6CC[C@@H](C5)N6)nc(OC(C)C56CCCN5CC(=C)C6)nc4c3F)c12 (stereo partly specified)	> 5 µM
[2H]C([2H])(Oc1nc(NCC2(N(C)C)CCC2)c2cnc(-c3cc(O)cc4ccc(F)c(C#C)c34)c(F)c2n1)C12CCCN1CC(=C(F)F)C2 (stereo unspecified)	1.82 µM

Recorded result, C#Cc1c(F)ccc2cc(O)cc(-c3ncc4c(N5C[C@H]6CC[C@@H](C5)N6)nc(OCCn5cc(COCC67CCCN6CC(=C)C7)nn5)nc4c3F)c12 (stereo partly specified) , IC50: > 5 µM

Recorded result, "C#CCN(C)C(=O)OC[C@@H]1CC[C@]2(COc3nc(N4C[C@H]5CC[C@@H](C4)N5)c4cnc(-c5cc(O)cc6ccc(F)c(C#C)c56)c(F)c4n3)CCCN12" , IC50: > 5 µM

Recorded result, C#Cc1c(F)ccc2cc(O)cc(-c3ncc4c(N5C[C@H]6CC[C@@H](C5)N6)nc(OC[C@]56CCCN5[C@@H](COC(=O)N5CCS(=O)(=O)CC5)CC6)nc4c3F)c12 (racemic) , IC50: > 5 µM
